# Tested on: OVCAR-4 ovarian
# assay-explanation: NCI-60 one-dose screen, 48 h (100 = growth as untreated, 0 = no growth, -100 = all killed)
# study-conditions: 10 µM unless noted
The panel holds about 83,000 compounds, 20% with a hit somewhere; the sample as a whole holds those more often.
Provide the reported growth of each item.
Answers are plain numbers, in %.

Recorded growth, per entry:
Memo: "Cn1cc(-c2csc(-c3cn(CCN)c4ccccc34)n2)c2cccnc21" , reported growth: 51.8

So, Cc1c(C)c2c(c(C)c1NC(=O)CCCCCCC(=O)O)CCC(C)(CCCC(C)CCCC(C)CCCC(C)C)O2 (stereo not given) ? Its growth was 58.5

response.value for "CC(=O)O[C@@H]1CCN2C(=O)N(C)c3ccccc3[C@@H]2C1" (field: growth) = 107

Batch lookup, growth per entry.
1. CC(C)c1cc(C(=O)O)c(O)c(C(C)C)c1.CC(C)c1cc(C(=O)O)c(O)c(C(C)C)c1.[Mn]
2. C[C@H]1OC(=O)/C=C/[C@@H](O)[C@@H](O)CCCCCCCC[C@@H]1O
3. CN(CSc1ccc(Cl)cc1)c1ccc(CSc2ccc(Cl)cc2)cc1
4. Nc1c2c(nc3ccc(Br)cc13)CC(c1ccccc1)CC2=O (stereo not given)
5. Cc1cc2nc3c4cc(O)ccc4n(CCN(C)C)c3nc2cc1C

Completion:
96.3
101
67.9
68.7
4.91

Provide growth for all items below, preserving their order.
1. CCC(c1ccc(OC)cc1)C(CC)c1ccc(O)c(CN2CCCCC2)c1 (stereo not given)
2. O=C(NCN1C(=O)c2cccc3cccc(c23)C1=O)N1CCC(Cc2ccccc2)CC1
3. C/C(=N\Nc1cc(C)c2ccccc2n1)c1ccccn1
4. Oc1cccc2ccc(N/N=C/c3cc(CN4CCCCC4)c(O)c4ncccc34)nc12
5. Fc1ccc(Nc2nc(Nc3ccc(-c4nc5ccccc5[nH]4)cc3)nc(N3CCCC3)n2)cc1
6. Cc1ccc(-c2ccc(/C=C(\C#N)c3nc(-c4ccco4)cs3)o2)cc1

Completion:
1. 67.1
2. 98.8
3. -8.85
4. 8.09
5. 88.6
6. 28.1

Could you report growth for every entry in the following list?
1. O=S(=O)(NCCNc1cc(-c2cn(-c3ccccc3)nc2-c2cccc(O)c2)ccn1)c1ccc(Br)cc1
2. O=C1/C(=C\C(Cl)=C/c2ccc([N+](=O)[O-])cc2)SC(=S)N1CCc1ccc(O)cc1
3. CC(C)(C)c1cc(-n2c(-c3ccc(Cl)cc3)nc3cc(C(=O)Nc4ccc(Cl)cc4)ccc32)n[nH]1
4. COc1ccc(/C=C2\N=C(c3ccccc3)N(c3cc(OC)c(OC)cc3C(=O)N3N=C(C)CC3=O)C2=O)cc1
5. Cc1nn(-c2ccc(Cl)cc2)c(=O)n1CCn1cnc2ccccc21
6. COc1cc(-c2nc(-c3ccccc3)c(-c3ccccc3)[nH]2)cc(OC)c1O

Completion:
1. 40.7
2. 26.7
3. 56.4
4. 101
5. 118
6. -36.5

###

# System: COLO 205 colon
# assay-explanation: NCI-60 one-dose screen, 48 h
# study-conditions: 10 µM unless noted
# Experimental: Cells are grown in 96 well plates and exposed to the test compound for 48 hours. Compounds are tested at a single concentration, which is 10^-5 M for most compounds. The reported endpoint is percent growth (GI% or GIPRCNT), where numbers from 0 - 100% represent growth inhibition, and numbers from -100% - 0 represent cell death. For example, a value of 40 represents 60% growth inhibition. A value of 0 means no net growth occurred over the course of the experiment. […]
About 83,000 compounds went through this panel and 20% of them were active in at least one assay; those are over-represented in the sample as a whole. Activity calls are given as the source filed them. How the source made its calls: active means growth percent below 10; inactive means the rest.
Form entry, call: pick from y = active, n = inactive

Check out these entries, answers already filled in.
Prompt: Which outcome did this test record for the compound "O=C(N/N=C\c1ccccc1O)C1CC1" ?
Completion: n

Prompt: For "O=S(=O)(NCCNc1cc(-c2cn(-c3ccccc3)nc2-c2cccc(O)c2)ccn1)c1ccc(Br)cc1" , what call appears in the results of this test?
Completion: y

Others:
Prompt: Call for entry "Cc1cc(N2CCCCC2)nc(N(CCCNc2ccnc3cc(Cl)ccc23)Cc2ccco2)n1" :
Completion: y
